Ok so here's the combined literature set: Ki for Furin (Homo sapiens, UniProt P09958).
Field format: number, assumed nM, no unit text.

- substanceSmiles: "CC(C)[C@H](NC(=O)[C@H](CCCN=C(N)N)NC(=O)Cc1ccccc1)C(=O)N[C@@H](CCCN=C(N)N)C(=O)NCc1cccc(CN)c1"
  Ki / nM: 1320
- substanceSmiles: "CC(C)[C@H](NC(=O)[C@H](CCCNC(=N)N)NC(=O)Cc1ccccc1)C(=O)N[C@@H](CCCNC(=N)N)C(=O)NCCCN"
  Ki / nM: 3020
- substanceSmiles: "CCCCCCCCCC(=O)N[C@@H](CCCN=C(N)N)C(=O)N[C@H](C(=O)N[C@@H](CCCCN)C(=O)Nc1ccc(C(=N)N)cc1)C(C)C"
  Ki / nM: 3.3
- substanceSmiles: "CC(C)[C@H](NC(=O)[C@H](CCCNC(=N)N)NCC(=O)Oc1ccccc1)C(=O)N[C@@H](CCCNC(=N)N)C(=O)NCCCNC(=N)N"
  Ki / nM: 63
- substanceSmiles: "CC(C)[C@H](NC(=O)[C@H](CCCN=C(N)N)NC(=O)Cc1ccccc1)C(=O)N[C@@H](CCCN=C(N)N)C(=O)NCc1cccc(CN=C(N)N)c1"
  Ki / nM: 2730

Under Furin (Homo sapiens, UniProt P09958), report Ki for CCCCCCCCCCN[C@@H](CCCN=C(N)N)C(=O)N[C@H](C(=O)N[C@@H](CCCCN)C(=O)N[C@@H](CCCN=C(N)N)C(=O)CCC(=O)N[C@@H](C(=O)NCC(=O)N[C@H](CC(C)C)C(=O)OC)C(C)C)C(C)C
330
